# assay system: T1, 4H949-bA
# T1 chain: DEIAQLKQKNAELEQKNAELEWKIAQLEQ
# test protocol: two-hybrid library CCNG1;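 note: natural log of median RNA to DNA barcode read ratio; higher means stronger binding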
measurement kind: interaction score

{"binder": "DEIAQLEQENAELKQKIAELKWENAQLEQ [4H235-bA]", "reported result": -0.885}
{"binder": "DEIAQLKQKIAELEQENAELKWENAQLKQ [4H796-bA]", "reported result": -0.898}
{"binder": "DEIAQLKQKNAELEQKIAELEWENAQLKQ [4H932-bA]", "reported result": -0.925}
